Target: Protein cereblon/Apoptosis regulator Bcl-2 (Homo sapiens) (UniProt P10415+Q96SW2)
Sequence (P10415 whole entry, looked up): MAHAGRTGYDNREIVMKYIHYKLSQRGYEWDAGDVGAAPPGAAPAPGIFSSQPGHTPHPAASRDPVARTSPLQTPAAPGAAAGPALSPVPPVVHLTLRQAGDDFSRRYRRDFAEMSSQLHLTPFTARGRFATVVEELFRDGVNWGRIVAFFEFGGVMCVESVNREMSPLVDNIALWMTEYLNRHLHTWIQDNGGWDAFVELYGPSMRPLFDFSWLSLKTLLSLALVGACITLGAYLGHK
Sequence (Q96SW2 whole entry, looked up): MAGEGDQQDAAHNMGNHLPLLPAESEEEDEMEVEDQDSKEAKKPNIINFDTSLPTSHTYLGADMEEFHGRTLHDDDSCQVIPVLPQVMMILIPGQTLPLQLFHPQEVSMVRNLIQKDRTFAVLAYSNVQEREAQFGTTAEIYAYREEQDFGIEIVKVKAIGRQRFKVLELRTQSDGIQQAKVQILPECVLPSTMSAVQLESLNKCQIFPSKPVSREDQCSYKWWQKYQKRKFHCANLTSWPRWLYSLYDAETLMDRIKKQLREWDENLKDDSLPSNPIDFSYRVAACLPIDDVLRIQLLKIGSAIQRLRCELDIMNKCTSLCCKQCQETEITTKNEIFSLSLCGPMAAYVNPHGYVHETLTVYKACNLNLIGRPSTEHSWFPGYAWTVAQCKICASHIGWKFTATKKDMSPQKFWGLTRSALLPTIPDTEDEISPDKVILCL
Test: Protac activity at CRBN/BCL2 in human MOLT-4 cells assessed as induction of BCL2 degradation at 50 nM measured after 16 hrs by immunoblotting analysis
Format: cell-based
The source made the active and inactive calls. The calls are words filed in the database; no cut-off is given here.
RECORDED METRIC: Activity

CC1(C)CCC(c2ccc(Cl)cc2)=C(CN2CCN(c3ccc(C(=O)NS(=O)(=O)c4ccc(N[C@H](CCN5CCN(C(=O)COCCOCCOCCOCCNc6cccc7c6C(=O)N([C@@H]6CCC(=O)NC6=O)C7=O)CC5)CSc5ccccc5)c(S(=O)(=O)C(F)(F)F)c4)cc3)CC2)C1 : inactive
CC1(C)CCC(c2ccc(Cl)cc2)=C(CN2CCN(c3ccc(C(=O)NS(=O)(=O)c4ccc(N[C@H](CCN5CCN(CCOCCNc6cccc7c6C(=O)N([C@@H]6CCC(=O)NC6=O)C7=O)CC5)CSc5ccccc5)c(S(=O)(=O)C(F)(F)F)c4)cc3)CC2)C1 : inactive
CC1(C)CCC(c2ccc(Cl)cc2)=C(CN2CCN(c3ccc(C(=O)NS(=O)(=O)c4ccc(N[C@H](CCN5CCN(CCCCNc6cccc7c6C(=O)N([C@@H]6CCC(=O)NC6=O)C7=O)CC5)CSc5ccccc5)c(S(=O)(=O)C(F)(F)F)c4)cc3)CC2)C1 : inactive
CN(CCCNc1cccc2c1C(=O)N([C@@H]1CCC(=O)NC1=O)C2=O)CC[C@H](CSc1ccccc1)Nc1ccc(S(=O)(=O)NC(=O)c2ccc(N3CCN(CC4=C(c5ccc(Cl)cc5)CCC(C)(C)C4)CC3)cc2)cc1S(=O)(=O)C(F)(F)F : inactive
